# Subject of test: ZDHHC7 isoform 2 (UniProt Q9NXF8)
# Sequence (Q9NXF8 whole entry, looked up, canonical isoform): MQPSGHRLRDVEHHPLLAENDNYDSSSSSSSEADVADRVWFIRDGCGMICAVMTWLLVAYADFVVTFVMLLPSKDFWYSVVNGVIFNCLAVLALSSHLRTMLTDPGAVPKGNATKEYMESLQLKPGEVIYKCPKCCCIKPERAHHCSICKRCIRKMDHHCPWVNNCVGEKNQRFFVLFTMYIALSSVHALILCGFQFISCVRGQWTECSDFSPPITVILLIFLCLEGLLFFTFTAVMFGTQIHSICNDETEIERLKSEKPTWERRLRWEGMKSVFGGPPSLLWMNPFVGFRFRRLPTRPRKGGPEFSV
# Assay summary: log2 fold change, soluble protein after heating vs DMSO (PISA); higher = thermal stabilisation; K562 cells, 10 uM, 30 min; active = over 0.2 and 3.5 SD of the protein, either way, in both replicates (recomputed)
Targets with a hit are over-represented here; the source holds about 7,900 in all. About 0.6% of all pairs of compound and target were hits.
Can you tell me log2 fold change for the items I'm about to list?
A bare number is all that is needed in reply.

In: Return log2 fold change (reported value) for this compound: CCn1cc(-c2ccnc3[nH]c(-c4cccc(CN(C)C)c4)cc23)c(-c2ccc(NC(=O)N(C)C)cc2)n1
Out: -0.363

In: Return log2 fold change (reported value) for this compound: CN1CCc2c(c3ccccc3n2Cc2ccc(C(=O)NO)cc2)C1
Out: -0.003

In: Return log2 fold change (reported value) for this compound: CCCCN(Cc1ccc(C(=O)NO)cc1)C(=O)Nc1ccccc1
Out: 0.052

In: Return log2 fold change (reported value) for this compound: CCn1c(C(=O)N(C2CC2)C2CC2)cc2c3c(ncn3C)c(Nc3cc(C)n(C)n3)nc21
Out: 0.011

In: Return log2 fold change (reported value) for this compound: Cc1nc(Nc2ncc(C(=O)Nc3c(C)cccc3Cl)s2)cc(N2CCN(CCO)CC2)n1
Out: -0.063

In: Return log2 fold change (reported value) for this compound: CC(C)N(C[C@H]1O[C@@H](n2cnc3c(N)ncnc32)[C@H](O)[C@@H]1O)[C@H]1C[C@@H](CCc2nc3cc(C(C)(C)C)ccc3[nH]2)C1
Out: -0.024

In: Return log2 fold change (reported value) for this compound: Cn1c2cc(S(C)=O)sc2c2cnn(Cc3cccc(N)c3)c(=O)c21 (stereo not drawn)
Out: 0.02

In: Return log2 fold change (reported value) for this compound: CNC(=O)c1ccccc1Nc1nc(Nc2ccc(N3CCOCC3)cc2OC)ncc1Cl
Out: -0.016

In: Return log2 fold change (reported value) for this compound: CNc1nc(-c2ccc3c(N)n[nH]c3c2)cc(N2C[C@@H](C(=O)NC3CCCCC3)CC[C@H]2C)n1
Out: -0.03

In: Return log2 fold change (reported value) for this compound: Cc1ccc(Sc2cncc3sc(C(N)=O)cc23)cc1
Out: -0.138

In: Return log2 fold change (reported value) for this compound: NC(=O)c1ccc2nc(-c3ccc(Oc4ccc(Cl)cc4)cc3)[nH]c2c1
Out: 0.022

In: Return log2 fold change (reported value) for this compound: CN1CCC(CNc2ccc3ncc(-c4cccc(OC(F)(F)F)c4)n3n2)CC1
Out: -0.415

In: Return log2 fold change (reported value) for this compound: CNCc1ccc(-c2[nH]c3cc(F)cc4c3c2CCNC4=O)cc1
Out: -0.067

In: Return log2 fold change (reported value) for this compound: Cc1cc(SCc2sc(-c3ccc(C(F)(F)F)cc3)nc2C)ccc1OCC(=O)O
Out: -0.075

In: Return log2 fold change (reported value) for this compound: CC(=O)c1cnc2ccc(-c3cc(Cl)c(O)c(Cl)c3)nc2c1N[C@H]1CC[C@H](CN(C)C)CC1
Out: -0.017

In: Return log2 fold change (reported value) for this compound: CC[C@H](C)n1cc(C)c2c(C(=O)NCc3c(C)cc(C)[nH]c3=O)cc(-c3ccc(N4CCNCC4)nc3)cc21
Out: -0.099

In: Return log2 fold change (reported value) for this compound: O=C1NC(=O)C(c2cnc3ccccn23)=C1c1cn2c3c(cc(F)cc13)CN(C(=O)N1CCCCC1)CC2
Out: -0.021

In: Return log2 fold change (reported value) for this compound: Cc1nc(Nc2n[nH]c3c2CN(C(=O)N[C@H](CN(C)C)c2ccccc2)C3(C)C)c2sccc2n1
Out: 0.046

----------
# Subject of test: YLPM1 (UniProt P49750)
# Sequence (P49750 whole entry, looked up): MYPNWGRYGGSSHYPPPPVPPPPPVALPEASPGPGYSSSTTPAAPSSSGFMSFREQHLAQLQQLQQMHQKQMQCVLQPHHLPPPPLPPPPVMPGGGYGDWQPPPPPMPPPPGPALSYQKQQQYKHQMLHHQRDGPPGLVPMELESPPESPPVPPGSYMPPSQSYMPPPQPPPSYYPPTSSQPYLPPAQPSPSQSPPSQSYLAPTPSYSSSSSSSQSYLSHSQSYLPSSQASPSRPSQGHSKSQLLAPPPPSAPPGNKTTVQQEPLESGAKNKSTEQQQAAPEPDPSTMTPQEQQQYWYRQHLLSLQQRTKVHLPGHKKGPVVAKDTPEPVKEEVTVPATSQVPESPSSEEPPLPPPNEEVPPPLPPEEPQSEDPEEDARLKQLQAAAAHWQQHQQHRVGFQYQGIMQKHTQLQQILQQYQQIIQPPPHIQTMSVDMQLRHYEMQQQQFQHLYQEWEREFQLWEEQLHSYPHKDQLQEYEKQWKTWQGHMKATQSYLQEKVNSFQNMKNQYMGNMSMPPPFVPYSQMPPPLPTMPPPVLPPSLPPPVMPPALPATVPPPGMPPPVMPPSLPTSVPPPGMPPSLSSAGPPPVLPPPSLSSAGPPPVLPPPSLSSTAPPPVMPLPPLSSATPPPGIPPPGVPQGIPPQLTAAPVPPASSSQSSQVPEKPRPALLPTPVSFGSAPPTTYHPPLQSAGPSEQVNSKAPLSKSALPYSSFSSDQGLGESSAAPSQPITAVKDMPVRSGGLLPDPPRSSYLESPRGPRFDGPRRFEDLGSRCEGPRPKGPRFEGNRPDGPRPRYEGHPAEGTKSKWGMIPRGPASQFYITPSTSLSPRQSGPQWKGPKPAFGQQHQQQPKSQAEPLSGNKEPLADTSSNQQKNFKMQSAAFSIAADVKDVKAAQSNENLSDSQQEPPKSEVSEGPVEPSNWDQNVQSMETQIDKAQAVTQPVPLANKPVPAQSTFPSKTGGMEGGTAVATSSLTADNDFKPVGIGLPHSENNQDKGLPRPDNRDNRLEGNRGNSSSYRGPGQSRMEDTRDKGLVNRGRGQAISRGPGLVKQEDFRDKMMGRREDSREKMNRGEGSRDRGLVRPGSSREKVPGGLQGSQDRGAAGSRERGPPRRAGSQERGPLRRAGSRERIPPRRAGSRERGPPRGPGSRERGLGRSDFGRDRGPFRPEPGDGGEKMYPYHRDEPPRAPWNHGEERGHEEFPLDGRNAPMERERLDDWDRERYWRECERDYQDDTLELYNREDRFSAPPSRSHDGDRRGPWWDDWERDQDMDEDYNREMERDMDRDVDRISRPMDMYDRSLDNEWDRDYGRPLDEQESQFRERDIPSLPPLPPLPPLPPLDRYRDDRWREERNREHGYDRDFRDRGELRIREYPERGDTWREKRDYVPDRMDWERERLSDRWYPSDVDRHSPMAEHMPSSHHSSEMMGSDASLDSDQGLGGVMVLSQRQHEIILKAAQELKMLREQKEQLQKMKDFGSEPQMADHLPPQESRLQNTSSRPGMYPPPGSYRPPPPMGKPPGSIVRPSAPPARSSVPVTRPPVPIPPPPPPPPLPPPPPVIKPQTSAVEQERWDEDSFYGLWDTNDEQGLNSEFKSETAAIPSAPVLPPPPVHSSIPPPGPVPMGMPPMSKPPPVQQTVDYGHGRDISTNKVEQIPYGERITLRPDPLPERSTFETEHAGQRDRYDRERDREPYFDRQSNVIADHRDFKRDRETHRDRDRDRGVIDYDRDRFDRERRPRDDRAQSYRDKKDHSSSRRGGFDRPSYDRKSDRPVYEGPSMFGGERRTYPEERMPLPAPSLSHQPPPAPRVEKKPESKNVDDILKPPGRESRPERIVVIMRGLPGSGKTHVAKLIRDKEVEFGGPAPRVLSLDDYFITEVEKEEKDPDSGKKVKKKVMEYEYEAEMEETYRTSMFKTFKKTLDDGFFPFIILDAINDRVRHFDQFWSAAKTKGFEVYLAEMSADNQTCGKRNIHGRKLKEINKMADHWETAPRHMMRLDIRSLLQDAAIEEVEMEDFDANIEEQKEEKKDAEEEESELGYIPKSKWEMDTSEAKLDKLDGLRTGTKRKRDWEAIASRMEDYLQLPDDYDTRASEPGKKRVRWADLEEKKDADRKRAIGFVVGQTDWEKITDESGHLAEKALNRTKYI
# Assay summary: log2 fold change, soluble protein after heating vs DMSO (PISA); higher = thermal stabilisation; K562 cells, 10 uM, 30 min; active = over 0.2 and 3.5 SD of the protein, either way, in both replicates (recomputed)
Of roughly 7,900 targets only a part is listed; those with a hit were picked by preference. About 0.6% of all pairs of compound and target were hits.
Measured quantity: log2 fold change
A bare number is all that is needed in reply.

In: Return log2 fold change (reported value) for this molecule: CN1CCC(CNc2ccc3ncc(-c4cccc(OC(F)(F)F)c4)n3n2)CC1
Out: -0.113

In: Return log2 fold change (reported value) for this molecule: COc1cc(Nc2ncc3c(n2)-c2ccc(Cl)cc2C(c2c(F)cccc2OC)=NC3)ccc1C(=O)O
Out: 0.017

In: Return log2 fold change (reported value) for this molecule: CN1CCN(c2nc(C3=C(c4c[nH]c5ccccc45)C(=O)NC3=O)c3ccccc3n2)CC1
Out: 0.021

In: Return log2 fold change (reported value) for this molecule: NC(=O)Nc1cc(-c2cccc(F)c2)sc1C(=O)N[C@H]1CCCNC1
Out: -0.023

In: Return log2 fold change (reported value) for this molecule: O=C(CCCCCCC(=O)Nc1ccccc1)NO
Out: 0.024

In: Return log2 fold change (reported value) for this molecule: CO[C@H]1C[C@@H]2CC[C@@H](C)[C@@](O)(O2)C(=O)C(=O)N2CCCC[C@H]2C(=O)O[C@H]([C@H](C)C[C@@H]2CC[C@H](n3cnnn3)[C@H](OC)C2)CC(=O)[C@H](C)/C=C(\C)[C@@H](O)[C@@H](OC)C(=O)[C@H](C)C[C@H](C)/C=C/C=C/C=C/1C
Out: -0.001

In: Return log2 fold change (reported value) for this molecule: Cn1cc(-c2ccc3nnc(C(F)(F)c4ccc5ncccc5c4)n3n2)cn1
Out: 0.031

In: Return log2 fold change (reported value) for this molecule: C/C(=N\NC(=O)c1cccc(S(=O)(=O)N2CCOCC2)c1)c1cc(Cl)ccc1O
Out: 0.03

In: Return log2 fold change (reported value) for this molecule: CC(=O)c1cnc2ccc(-c3cc(Cl)c(O)c(Cl)c3)nc2c1N[C@H]1CC[C@H](CN(C)C)CC1
Out: -0.093

In: Return log2 fold change (reported value) for this molecule: O=C1NC(=O)C(c2cnc3ccccn23)=C1c1cn2c3c(cc(F)cc13)CN(C(=O)N1CCCCC1)CC2
Out: 0.026

In: Return log2 fold change (reported value) for this molecule: NC(=O)c1ccc2nc(-c3ccc(Oc4ccc(Cl)cc4)cc3)[nH]c2c1
Out: 0.033

In: Return log2 fold change (reported value) for this molecule: C#Cc1cccc(Nc2ncnc3cc(OCCOC)c(OCCOC)cc23)c1
Out: 0.084

In: Return log2 fold change (reported value) for this molecule: COc1cc2ncnc(Nc3ccc(F)c(Cl)c3)c2cc1OCCCN1CCOCC1
Out: 0.002

In: Return log2 fold change (reported value) for this molecule: CN1CCc2c(c3ccccc3n2Cc2ccc(C(=O)NO)cc2)C1
Out: 0.039

In: Return log2 fold change (reported value) for this molecule: CNC(=O)c1ccccc1Nc1nc(Nc2ccc(N3CCOCC3)cc2OC)ncc1Cl
Out: -0.006

In: Return log2 fold change (reported value) for this molecule: Cc1cccc(CC(=O)N2CCc3c2ccc(-c2cn(C)c4ncnc(N)c24)c3F)n1
Out: -0.05

In: Return log2 fold change (reported value) for this molecule: CCn1cc(-c2ccnc3[nH]c(-c4cccc(CN(C)C)c4)cc23)c(-c2ccc(NC(=O)N(C)C)cc2)n1
Out: -0.012

In: Return log2 fold change (reported value) for this molecule: CNCc1ccc(-c2[nH]c3cc(F)cc4c3c2CCNC4=O)cc1
Out: -0.07

In: Return log2 fold change (reported value) for this molecule: CS(=O)(=O)CCNCc1ccc(-c2ccc3ncnc(Nc4ccc(OCc5cccc(F)c5)c(Cl)c4)c3c2)o1
Out: -0.028

In: Return log2 fold change (reported value) for this molecule: NC1(c2ccc(-c3nc4ccn5c(=O)[nH]nc5c4cc3-c3ccccc3)cc2)CCC1
Out: -0.046

In: Return log2 fold change (reported value) for this molecule: CN1CC[C@H](c2c(O)cc(O)c3c(=O)cc(-c4ccccc4Cl)oc23)[C@H](O)C1
Out: 0

In: Return log2 fold change (reported value) for this molecule: NC1(Cc2ccc(Cl)cc2)CCN(c2ncnc3[nH]ccc23)CC1
Out: 0.102

In: Return log2 fold change (reported value) for this molecule: CCn1c(C(=O)N(C2CC2)C2CC2)cc2c3c(ncn3C)c(Nc3cc(C)n(C)n3)nc21
Out: -0.077

In: Return log2 fold change (reported value) for this molecule: Cc1cccc(-c2[nH]c(C(C)(C)C)nc2-c2ccc3nccnc3c2)n1
Out: 0.043

In: Return log2 fold change (reported value) for this molecule: Cc1ccc(-n2nc(C(C)(C)C)cc2NC(=O)Nc2ccc(OCCN3CCOCC3)c3ccccc23)cc1
Out: 0

In: Return log2 fold change (reported value) for this molecule: CCCc1cc(C)[nH]c(=O)c1CNC(=O)c1cc(-c2ccnc(N3CCN(C)CC3)c2)cc2c1cnn2C(C)C
Out: 0.083

In: Return log2 fold change (reported value) for this molecule: CNc1nc(-c2ccc3c(N)n[nH]c3c2)cc(N2C[C@@H](C(=O)NC3CCCCC3)CC[C@H]2C)n1
Out: 0.006

In: Return log2 fold change (reported value) for this molecule: Cc1ccc(NC(=O)c2cccc(N(C)C)c2)cc1NC(=O)c1ccc(O)cc1
Out: -0.023

In: Return log2 fold change (reported value) for this molecule: FC(F)(F)c1ccc(/C=C/c2nc(COc3ccc(CCCCn4ccnn4)cc3)co2)cc1
Out: -0.038

In: Return log2 fold change (reported value) for this molecule: NCC(=O)Nc1ccc(-n2nc(C(F)(F)F)cc2-c2ccc3c(ccc4ccccc43)c2)cc1
Out: -0.069

In: Return log2 fold change (reported value) for this molecule: Fc1ccc(Cl)cc1-c1nc(Nc2ccncc2)c2nccnc2n1
Out: 0.057

In: Return log2 fold change (reported value) for this molecule: COC(=O)[C@H](CCSC)NC(=O)c1ccc(NC[C@@H](N)CS)cc1-c1ccccc1
Out: -0.014

In: Return log2 fold change (reported value) for this molecule: Cc1cc(Nc2cc(CN3CCOCC3)c3nc(C)c(Cc4ccc(Cl)cc4F)n3n2)n[nH]1
Out: -0.117

In: Return log2 fold change (reported value) for this molecule: Nc1ccccc1NC(=O)c1ccc(CNC(=O)OCc2cccnc2)cc1
Out: -0.064
